- Procedure text: BODIPY-TR-cadaverine (BC) fluorescence displacement assay for LPS binding affinity
- Assay context: purified re-synthesized leads; half-maximal effective displacement of probe; 50 mM Tris buffer, pH 7.4; read-out: Binding affinity (BC displacement) ED50 value
The entries below are paired with their reported log10(EC50).
Endpoint: log10(EC50) (log10 of the value in µM)

                                    compound  measured_number
 0  CCCCCCCCCCCCCCCCCCNCCCC(=O)NC(Cc1ccccc1)C(=O)NCCCCCN (stereo not drawn) [compound 1192]             0.88
 1  CCCCCCCCCCCCCCCCCCNCC(=O)NC(Cc1cnc[nH]1)C(=O)NCCCN (stereo not drawn) [compound 1122]             0.69
 2  CCCCCCCCCCCCCCCCCCNCCC(=O)NCCCCCN [compound 2327]             0.61
 3  CCCCCCCCCCCCCCCCCCNCCCC(=O)NCC(=O)NCCOCCN [compound 1057]             1.03
 4  CCCCCCCCCCCCCCCCCCNCCC(=O)NC(Cc1cnc[nH]1)C(=O)NCCOCCN (stereo not drawn) [compound 1037]             0.50
 5  CCCCCCCCCCCCCCCCCCNCC(=O)NC(Cc1cnc[nH]1)C(=O)NCCCCCN (stereo not drawn) [compound 1212]             1.08
 6  CCCCCCCCCCCCCCCCCCNCCCC(=O)NC(Cc1ccccc1)C(=O)NCCCN (stereo not drawn) [compound 1102]             0.76
 7  CCCCCCCCCCCCCCCCCCNCC(=O)NC(Cc1ccccc1)C(=O)NCCOCCN (stereo not drawn) [compound 1002]             1.09
 8  CCCCCCCCCCCCCCCCCCNCCC(=O)NC(Cc1ccccc1)C(=O)NCCCN (stereo not drawn) [compound 1097]             0.62
 9  CCCCCCCCCCCCCCCCCCNCC(=O)NCCCN [compound 2322]             0.58
10  CCCCCCCCCCCCCCCCCCNCCC(=O)NC(Cc1cnc[nH]1)C(=O)NCCCN (stereo not drawn) [compound 1127]             0.84
11  CCCCCCCCCCCCCCCCCCNCCCC(=O)NC(Cc1cnc[nH]1)C(=O)NCCCN (stereo not drawn) [compound 1132]             0.48
12  CCCCCCCCCCCCCCCCCCNCCC(=O)NCC(=O)NCCCCCN [compound 1232]             1.05
13  CCCCCCCCCCCCCCCCCCNCCC(=O)NC(Cc1ccccc1)C(=O)NCCCCCN (stereo not drawn) [compound 1187]             3.59
14  CCCCCCCCCCCCCCCCCCNCCC(=O)NCCCN [compound 2323]             1.00
15  CCCCCCCCCCCCCCCCCCNCC(=O)NC(Cc1ccccc1)C(=O)NCCCN (stereo not drawn) [compound 1092]             0.94
16  CCCCCCCCCCCCCCCCCCNCC(=O)NCCOCCN [compound 2326]             1.09
17  CCCCCCCCCCCCCCCCCCNCCCC(=O)NC(Cc1cnc[nH]1)C(=O)NCCCCCN (stereo not drawn) [compound 1222]             1.27
18  CCCCCCCCCCCCCCCCCCNCCCC(=O)NCCCN [compound 2324]             0.79
19  CCCCCCCCCCCCCCCCCCNCCCC(=O)NCC(=O)NCCCCCN [compound 1237]             0.99
20  CCCCCCCCCCCCCCCCCCNCC(=O)NC(Cc1cnc[nH]1)C(=O)NCCOCCN (stereo not drawn) [compound 1032]             1.12
21  CCCCCCCCCCCCCCCCCCNCCCC(=O)NC(Cc1cnc[nH]1)C(=O)NCCOCCN (stereo not drawn) [compound 1042]             0.73
22  CCCCCCCCCCCCCCCCCCNCCCC(=O)NCC(=O)NCCCN [compound 1147]             0.79
23  CCCCCCCCCCCCCCCCCCNCC(=O)NCC(=O)NCCCN [compound 1137]             0.82
24  CCCCCCCCCCCCCCCCCCNCCC(=O)NC(Cc1ccccc1)C(=O)NCCOCCN (stereo not drawn) [compound 1007]             0.40
25  CCCCCCCCCCCCCCCCCCNCC(=O)NCC(=O)NCCCCCN [compound 1227]             1.45
26  CCCCCCCCCCCCCCCCCCNCCC(=O)NCCOCCN [compound 2328]             0.96
